Entries and their measured log10(IC50) follow.
biological target: Genome polyprotein (Hepatitis C virus genotype 1b (isolate Con1) (HCV)); experiment: Inhibition of […] 1b con1 NS5B polymerase assessed as [3H]UTP incorporation into acid insoluble RNA product
Sequence (Q9WMX2 2420-3010 limits assumed): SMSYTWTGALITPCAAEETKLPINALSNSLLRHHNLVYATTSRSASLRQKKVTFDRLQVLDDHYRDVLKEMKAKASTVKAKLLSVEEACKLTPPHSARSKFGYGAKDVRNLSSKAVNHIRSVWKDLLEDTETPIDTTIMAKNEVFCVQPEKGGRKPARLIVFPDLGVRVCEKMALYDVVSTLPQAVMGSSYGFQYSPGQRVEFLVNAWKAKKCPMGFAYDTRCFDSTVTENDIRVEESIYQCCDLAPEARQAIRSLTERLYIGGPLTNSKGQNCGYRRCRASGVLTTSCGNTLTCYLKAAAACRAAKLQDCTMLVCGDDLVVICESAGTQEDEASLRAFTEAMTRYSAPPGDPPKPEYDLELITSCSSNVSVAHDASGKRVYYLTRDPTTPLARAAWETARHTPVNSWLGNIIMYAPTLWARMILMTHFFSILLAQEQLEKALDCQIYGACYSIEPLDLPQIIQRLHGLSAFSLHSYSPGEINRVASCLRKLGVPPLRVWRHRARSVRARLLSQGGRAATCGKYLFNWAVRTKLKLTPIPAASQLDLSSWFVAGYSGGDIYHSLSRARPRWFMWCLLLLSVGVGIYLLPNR
A difference of one corresponds to tenfold IC50; all values are log10 with IC50 in nM.

// below: answered compounds
given.smiles: CC(C)(C)[C@H]1C(O)=C(C2=CS(=O)(=O)c3cc(NS(C)(=O)=O)cc(F)c3N2)C(=O)N1Cc1ccc(F)cc1
log10(IC50): 0.95

given.smiles: COc1cc(CN2C(=O)C(C3=CS(=O)(=O)c4cc(NS(C)(=O)=O)ccc4N3)=C(O)[C@@H]2C(C)(C)C)ccc1F
log10(IC50): 0.60

given.smiles: CC(=O)C1=C(C2=C(O)[C@H](C(C)(C)C)N(Cc3ccc(F)cc3)C2=O)Nc2ccc(NS(C)(=O)=O)cc2S1(=O)=O
log10(IC50): 0.60

Request: Give its log10(IC50) value. Item: CC(C)(C)[C@H]1C(O)=C(C2=C(C#N)S(=O)(=O)c3cc(NS(C)(=O)=O)ccc3N2)C(=O)N1Cc1ccc(F)cc1
Result: 0.78

Request: Give its log10(IC50) value. Item: CC(C)(C)[C@H]1C(O)=C(C2=CS(=O)(=O)c3cc([N+](=O)[O-])ccc3N2)C(=O)N1Cc1ccc(F)cc1
Result: 3.26

----------
test: Permeability by PAMPA; assay type: ADME; settings: read-out: permeability
measured.quantity: Papp (×10⁻⁶ cm/s)
Give the number; ×10⁻⁶ cm/s is assumed, so skip it.

given.smiles: CC(C)(C)CCN1C(=O)C(C2=CS(=O)(=O)c3cc(NS(C)(=O)=O)ccc3N2)=C(O)[C@@H]1C(C)(C)C
units.label: ×10⁻⁶ cm/s
Papp: 1.8

given.smiles: CC(C)(C)[C@H]1C(O)=C(C2=CS(=O)(=O)c3cc(NS(C)(=O)=O)ccc3N2)C(=O)N1Cc1ccc(F)c(Cl)c1
units.label: ×10⁻⁶ cm/s
Papp: 0.98

given.smiles: CC(C)(C)[C@H]1C(O)=C(C2=CS(=O)(=O)c3cc(NS(C)(=O)=O)ccc3N2)C(=O)N1Cc1ccc(F)cc1
units.label: ×10⁻⁶ cm/s
Papp: 1.4

Request: Give its Papp value. Item: Cc1cc(CN2C(=O)C(C3=CS(=O)(=O)c4cc(NS(C)(=O)=O)ccc4N3)=C(O)[C@@H]2C(C)(C)C)ccc1F
Result: 1.62

Request: Give its Papp value. Item: CC(C)(C)[C@H]1C(O)=C(C2=CS(=O)(=O)c3cc(NS(C)(=O)=O)ccc3N2)C(=O)N1Cc1ccccc1
Result: 1.8

----------
experiment: AUC in rat at 5 mg/kg; type: ADME, organism-based; parameters: dose 5 mg/kg; settings: plasma
measured.quantity: AUC (ng·h/mL)
Give the number; ng·h/mL is assumed, so skip it.

Request: Give its AUC value. Item: CC(C)(C)[C@H]1C(O)=C(C2=CS(=O)(=O)c3cc(NS(C)(=O)=O)ccc3N2)C(=O)N1Cc1ccc(F)cc1
Result: 189

----------
assay: Clearance in rat at 2 mg/kg, iv; type: ADME, organism-based; design: dose 2 mg/kg, route intravenous; conditions: in vivo
measured.quantity: clearance (mL/min/kg)
Give the number; mL/min/kg is assumed, so skip it.

// below: answered compounds
given.smiles: CC(C)(C)[C@H]1C(O)=C(C2=C(C(N)=O)S(=O)(=O)c3cc(NS(C)(=O)=O)ccc3N2)C(=O)N1Cc1ccc(F)cc1
value.reported: 5
--
given.smiles: CC(C)(C)[C@H]1C(O)=C(C2=CS(=O)(=O)c3cc(NS(C)(=O)=O)ccc3N2)C(=O)N1Cc1ccccc1
value.reported: 144
--
given.smiles: Cc1cc(CN2C(=O)C(C3=CS(=O)(=O)c4cc(NS(C)(=O)=O)ccc4N3)=C(O)[C@@H]2C(C)(C)C)ccc1F
value.reported: 101
--
given.smiles: CC(C)(C)[C@H]1C(O)=C(C2=CS(=O)(=O)c3cc(NS(C)(=O)=O)cc(F)c3N2)C(=O)N1Cc1ccc(F)cc1
value.reported: 36
--
given.smiles: CC(C)(C)[C@H]1C(O)=C(C2=CS(=O)(=O)c3cc(NS(C)(=O)=O)ccc3N2)C(=O)N1Cc1ccc(F)cc1
value.reported: 101

We next turn to a different compound, shown below.
Request: Give its clearance value. Item: CC(C)(C)[C@H]1C(O)=C(C2=CS(=O)(=O)c3cc(NS(C)(=O)=O)ccc3N2)C(=O)N1Cc1ccc(F)c(Cl)c1
Result: 86

----------
Entries and their measured IC50 follow.
target: Genome polyprotein (Hepatitis C virus genotype 1b (isolate Con1) (HCV)); assay: Inhibition of […] 1b con1 NS5B polymerase assessed as [3H]UTP incorporation into acid insoluble RNA product
Give the number; nM is assumed, so skip it.

given.smiles: CC(C)(C)[C@H]1C(O)=C(C2=CS(=O)(=O)c3cc(NS(C)(=O)=O)ccc3N2)C(=O)N1Cc1ccc(F)cc1
units.label: nM
IC50: 7
--
given.smiles: CC(C)(C)[C@H]1C(O)=C(C2=C(C(N)=O)S(=O)(=O)c3cc(NS(C)(=O)=O)ccc3N2)C(=O)N1Cc1ccc(F)cc1
units.label: nM
IC50: 11
--
given.smiles: CC(C)(C)[C@H]1C(O)=C(C2=CS(=O)(=O)c3cc(NS(C)(=O)=O)ccc3N2)C(=O)N1Cc1ccc(F)cc1F
units.label: nM
IC50: 13

We next turn to a different molecule, shown below.
Request: Give its IC50 value. Item: CC(C)(C)CCN1C(=O)C(C2=CS(=O)(=O)c3cc(NS(C)(=O)=O)ccc3N2)=C(O)[C@@H]1C(C)(C)C
Result: 8

----------
test: Oral bioavailability in rat; format: ADME, organism-based; conditions: in vivo
measured.quantity: bioavailability (%)
Give the number; % is assumed, so skip it.

Request: Give its bioavailability value. Item: CC(C)(C)[C@H]1C(O)=C(C2=CS(=O)(=O)c3cc(NS(C)(=O)=O)ccc3N2)C(=O)N1Cc1ccc(F)cc1
Result: 22

----------
experiment: Tmax in po dosed rat; type: ADME, organism-based; settings: in vivo
measured.quantity: Tmax (h)
Give the number; h is assumed, so skip it.

Request: Give its Tmax value. Item: CC(C)(C)[C@H]1C(O)=C(C2=CS(=O)(=O)c3cc(NS(C)(=O)=O)ccc3N2)C(=O)N1Cc1ccc(F)cc1
Result: 1.3

----------
test: Cytotoxicity against human 2209-23 cells assessed as […] by WST-1 assay; type: cell-based
Entries and their measured CC50 follow.

given.smiles: CC1=C(C2=C(O)[C@H](C(C)(C)C)N(Cc3ccc(F)cc3)C2=O)Nc2ccc(NS(C)(=O)=O)cc2S1(=O)=O
CC50: > 50 µM
//
given.smiles: CC(C)(C)[C@H]1C(O)=C(C2=CS(=O)(=O)c3cc(NS(C)(=O)=O)ccc3N2)C(=O)N1Cc1ccc(F)cn1
CC50: > 50 µM

Request: Give its CC50 value. Item: CC(C)(C)[C@H]1C(O)=C(C2=CS(=O)(=O)c3cc(NS(C)(=O)=O)ccc3N2)C(=O)N1Cc1ccc(F)c(Cl)c1
Result: > 50 µM

----------
target: Cytochrome P450 3A4 (Homo sapiens); assay: Inhibition of CYP3A4 by time dependent inactivation assay; format: ADME
Sequence (P08684 whole entry): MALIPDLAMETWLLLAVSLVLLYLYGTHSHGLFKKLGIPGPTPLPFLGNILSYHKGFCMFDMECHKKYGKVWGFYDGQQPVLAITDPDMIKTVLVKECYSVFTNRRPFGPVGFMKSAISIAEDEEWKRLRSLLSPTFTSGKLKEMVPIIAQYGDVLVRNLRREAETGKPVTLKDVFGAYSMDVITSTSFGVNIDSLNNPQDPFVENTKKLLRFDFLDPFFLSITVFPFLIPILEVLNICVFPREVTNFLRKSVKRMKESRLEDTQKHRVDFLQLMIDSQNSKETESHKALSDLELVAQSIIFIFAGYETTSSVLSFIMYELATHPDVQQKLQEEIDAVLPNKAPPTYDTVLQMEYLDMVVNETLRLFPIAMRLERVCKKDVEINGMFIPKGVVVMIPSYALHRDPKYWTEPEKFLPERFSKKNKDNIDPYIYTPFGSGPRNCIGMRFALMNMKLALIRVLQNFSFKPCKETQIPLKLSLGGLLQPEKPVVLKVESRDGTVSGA
# if value of inhibition (INH) reaches 20%, tag criterion met; if it stays below, tag criterion not met

Request: Quick check: does CC(C)(C)CCN1C(=O)C(C2=CS(=O)(=O)c3cc(NS(C)(=O)=O)ccc3N2)=C(O)[C@@H]1C(C)(C)C have inhibition (INH) greater than or equal to 20%?
Result: criterion met

Request: Quick check: does CC(C)(C)[C@H]1C(O)=C(C2=CS(=O)(=O)c3cc(NS(C)(=O)=O)ccc3N2)C(=O)N1Cc1ccc(F)c(Cl)c1 have inhibition (INH) greater than or equal to 20%?
Result: criterion met

Request: Quick check: does Cc1cc(CN2C(=O)C(C3=CS(=O)(=O)c4cc(NS(C)(=O)=O)ccc4N3)=C(O)[C@@H]2C(C)(C)C)ccc1F have inhibition (INH) greater than or equal to 20%?
Result: criterion met

Request: Quick check: does CC1=C(C2=C(O)[C@H](C(C)(C)C)N(Cc3ccc(F)cc3)C2=O)Nc2ccc(NS(C)(=O)=O)cc2S1(=O)=O have inhibition (INH) greater than or equal to 20%?
Result: criterion met

Request: Quick check: does CC(C)(C)[C@H]1C(O)=C(C2=C(C(N)=O)S(=O)(=O)c3cc(NS(C)(=O)=O)ccc3N2)C(=O)N1Cc1ccc(F)cc1 have inhibition (INH) greater than or equal to 20%?
Result: criterion not met

Request: Quick check: does CC(C)(C)[C@H]1C(O)=C(C2=CS(=O)(=O)c3cc(NS(C)(=O)=O)ccc3N2)C(=O)N1Cc1ccccc1 have inhibition (INH) greater than or equal to 20%?
Result: criterion not met

Request: Quick check: does CC(C)(C)[C@H]1C(O)=C(C2=CS(=O)(=O)c3cc(F)ccc3N2)C(=O)N1Cc1ccc(F)cc1 have inhibition (INH) greater than or equal to 20%?
Result: criterion not met
